- TESTED_ON: AtMYB61 (Arabidopsis thaliana, UniProt Q8VZQ2 1-366)
- Sequence (Q8VZQ2 whole entry): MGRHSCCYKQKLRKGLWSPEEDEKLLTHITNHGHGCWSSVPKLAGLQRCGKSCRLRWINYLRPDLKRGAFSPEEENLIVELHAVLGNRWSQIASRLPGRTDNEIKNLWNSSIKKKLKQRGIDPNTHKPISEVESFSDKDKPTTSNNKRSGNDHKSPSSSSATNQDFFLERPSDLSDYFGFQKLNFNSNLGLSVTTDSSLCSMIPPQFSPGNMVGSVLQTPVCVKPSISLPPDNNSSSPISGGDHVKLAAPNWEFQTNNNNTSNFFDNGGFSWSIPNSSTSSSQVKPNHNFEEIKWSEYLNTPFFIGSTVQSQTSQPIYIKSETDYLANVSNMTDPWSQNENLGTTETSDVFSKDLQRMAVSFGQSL
- MEASUREMENT_PROTOCOL: filter binding; Buffer, salt, pH and temperature not stated (filter binding per Hall and Kranz; EMSA per earlier work); filter binding with 1065 nM probe (124.41 ng, 60 bp) in
- RUN_CONDITIONS: protein: recombinant; tags: pET15b (NdeI/BamHI) fusion
Rule for this label: fulfilled means Kd is less than 20 nM; not fulfilled means Kd is at least 20 nM.

binder="ACCAAC (dsDNA) DNA 1: ACATTGGGCGAGAAAAGCTGATCCCCACCAACCCGGGCTATCTCCCCCTCCTCCTCCGATCTG DNA 2: CAGATCGGAGGAGGAGGGGGAGATAGCCCGGGTTGGTGGGGATCAGCTTTTCTCGCCCAATGT" assigned_category="not fulfilled"
binder="ACCATA (dsDNA) DNA 1: ACATTGGGCGAGAAAAGCTGATCCCCACCATACCGGGCTATCTCCCCCTCCTCCTCCGATCTG DNA 2: CAGATCGGAGGAGGAGGGGGAGATAGCCCGGTATGGTGGGGATCAGCTTTTCTCGCCCAATGT" assigned_category=fulfilled
binder="ACCTGC (AC-I mutant, A5G) (dsDNA) DNA 1: ACATTGGGCGAGAAAAGCTGATCCCCACCTGCCCGGGCTATCTCCCCCTCCTCCTCCGATCTG DNA 2: CAGATCGGAGGAGGAGGGGGAGATAGCCCGGGCAGGTGGGGATCAGCTTTTCTCGCCCAATGT" assigned_category="not fulfilled"
binder="ACCAAA (dsDNA) DNA 1: ACATTGGGCGAGAAAAGCTGATCCCCACCAAACCGGGCTATCTCCCCCTCCTCCTCCGATCTG DNA 2: CAGATCGGAGGAGGAGGGGGAGATAGCCCGGTTTGGTGGGGATCAGCTTTTCTCGCCCAATGT" assigned_category=fulfilled
binder="ACCTAC (AC-I) (dsDNA) DNA 1: ACATTGGGCGAGAAAAGCTGATCCCCACCTACCCGGGCTATCTCCCCCTCCTCCTCCGATCTG DNA 2: CAGATCGGAGGAGGAGGGGGAGATAGCCCGGGTAGGTGGGGATCAGCTTTTCTCGCCCAATGT" assigned_category=fulfilled
binder="ACCACC (dsDNA) DNA 1: ACATTGGGCGAGAAAAGCTGATCCCCACCACCCCGGGCTATCTCCCCCTCCTCCTCCGATCTG DNA 2: CAGATCGGAGGAGGAGGGGGAGATAGCCCGGGGTGGTGGGGATCAGCTTTTCTCGCCCAATGT" assigned_category="not fulfilled"
